Data origin: patent US20140349989A1

# PROCEDURE DETAILS: Cytotoxicity Assay (HCT116, CellTiter-Glo)
# Type: cell-based
# EXPERIMENTAL SETUP: human, HCT116 cells, 72 hours drug incubation, CellTiter-Glo luminescence; read-out: HCT116 cell cytotoxicity IC50
QUANTITY KIND: IC50 at 72 h

Here is how some molecules turned out for IC50 at 72 h.
[
  {
    "MOLECULE": "O=C(/C=C/c1ccc(-n2cc(CCN3CCCCC3)c3ccccc32)cc1)NCc1cccnc1",
    "IC50 at 72 h": "< 100 nM"
  },
  {
    "MOLECULE": "O=C(NCc1cccnc1)N[C@H]1CC[C@H](n2cc(C(=O)N3CCN(C4CCCCC4)CC3)c3ccccc32)CC1",
    "IC50 at 72 h": "< 100 nM"
  },
  {
    "MOLECULE": "CN1CCN(C2CCN(C(=O)c3cn(CCCNC(=O)NCc4cccnc4)c4ccccc34)CC2)CC1",
    "IC50 at 72 h": "< 100 nM"
  },
  {
    "MOLECULE": "CC(C(=O)N(C)C)N1CCC2(CC1)CN(c1ccc(NC(=O)NCc3cccnc3)cc1)c1ccccc12 (stereo not shown)",
    "IC50 at 72 h": "< 100 nM"
  },
  {
    "MOLECULE": "O=C(NCCCCCn1cc(C(=O)N2CCC(N3CCC(F)(F)CC3)CC2)c2ccccc21)NCc1cccnc1",
    "IC50 at 72 h": "< 100 nM"
  },
  {
    "MOLECULE": "O=C(NCc1cccnc1)N[C@H]1CC[C@@H](n2cc(C(=O)N3CCN(C4CCCCC4)CC3)c3ccccc32)CC1",
    "IC50 at 72 h": "≥ 100 nM"
  }
]

Query: May I ask what IC50 at 72 h has been recorded for O=C(/C=C/c1ccc(-n2nc(C(=O)N3CCN(C4CCCCC4)CC3)c3ccccc32)cc1)NCc1cccnc1 ?
Reply: < 100 nM

Query: May I ask what IC50 at 72 h has been recorded for O=C(NCc1cccnc1)Nc1ccc(-n2cc(CCN3CCOCC3)c3ccccc32)cc1 ?
Reply: < 100 nM
